Biological target: Mu-type opioid receptor (Homo sapiens)
Assay: activators of OPRM1-OPRD1 heterodimerization, late-stage follow-up, cell-based, luminescence, dose response (AID 651685)
Conditions: cells, luminescence complementation
Active and inactive are the calls of the source. The rule behind the calls is not given here.
Labels: active, inactive

{"columns": ["compound", "label"],
 "data": [
  ["CCOC(=O)C1(CCc2ccccc2)CCN(Cc2cc(C)cc(C)c2)CC1", "inactive"],
  ["CCOC(=O)C1(CCc2ccccc2)CCN(Cc2ccc(OC(C)C)c(C#N)c2)CC1", "inactive"],
  ["CCOC(=O)C1(CC2CCCCO2)CCN(Cc2c(C)cc(C)cc2-n2cccn2)CC1 (stereo unspecified)", "active"],
  ["CCOC(=O)C1(Cc2ccccc2)CCN(Cc2cccn2-c2cccnc2)CC1", "inactive"],
  ["CCOC(=O)C1(CCc2ccccc2)CCN(Cc2ccccc2C)CC1", "active"],
  ["OCC1(CCc2ccccc2)CCN(Cc2cc(F)ccc2-n2cccn2)CC1", "inactive"]
]}
